SYSTEM_UNDER_TEST: p43 (Tm-DLP-1) (Trichuris muris)
Construct: native, purified from adult worm excretory/secretory medium by Ni-NTA (natural His-rich tail) and Superdex 75; signal peptide predicted cleaved between 17 and 18
Sequence (A0A5S6QYG9 entry or part of it): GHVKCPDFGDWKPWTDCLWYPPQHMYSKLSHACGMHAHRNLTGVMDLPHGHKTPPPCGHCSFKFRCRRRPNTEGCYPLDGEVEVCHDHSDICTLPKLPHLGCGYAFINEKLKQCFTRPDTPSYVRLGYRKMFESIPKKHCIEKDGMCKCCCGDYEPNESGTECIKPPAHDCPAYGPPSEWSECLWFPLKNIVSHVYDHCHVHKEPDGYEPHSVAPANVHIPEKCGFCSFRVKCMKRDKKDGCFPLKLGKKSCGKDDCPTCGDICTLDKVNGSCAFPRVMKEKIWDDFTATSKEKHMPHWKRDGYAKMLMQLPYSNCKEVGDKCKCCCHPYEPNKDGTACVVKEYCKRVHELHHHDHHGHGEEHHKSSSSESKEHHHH
EXPERIMENT_NOTES: fluorescence titration
ATTRIBUTE_MEASURED: pKd
pKd field: float, defined as -log10 of concentration (mol/L).

Just so you know, measured pKd for CN(C)c1cccc2c(S(=O)(=O)NCCCCCCCCCCC(=O)O)cccc12 came out at 6.46
